Test Protocol: Primary qHTS for delayed death inhibitors of the malarial parasite plastid, 96 hour incubation
Run Conditions: P. falciparum luciferase reporter growth; series mostly up to 28.7 µM
In all, about 320,000 compounds went through this assay and about 22,000 (6.9%) were called active. Another 27% or so got no clear call; they are omitted. Calls come from the whole dose curve; as a rule, active = well fitted inhibition curve with a large enough effect; inconclusive = small, poorly fitted or top-dose-only effect, or another doubt; inactive = no such curve, though single readings can be large or run the other way. The entries come from a sample that favours actives as a whole.
Outcomes you can answer with include only these: yes (1) for active, no (0) for inactive

Lookup: GET /call?item= O=C(Nc1ccc(Cl)cc1)N1CCc2[nH]c3ccccc3c2C1 returns the recorded outcome of this test.
Found: no (0)

Lookup: GET /call?item= NC(=O)c1sc2nc3c(c(-c4ccccc4)c2c1N)CCC3 returns the recorded outcome of this test.
Found: no (0)

Lookup: GET /call?item= O=C(NC1CCCCC1)N1CCc2[nH]c3ccccc3c2C1 returns the recorded outcome of this test.
Found: yes (1)

Lookup: GET /call?item= CC(NC(=O)C(=O)Nc1nccs1)c1ccccc1 (stereo not given) returns the recorded outcome of this test.
Found: no (0)

Lookup: GET /call?item= O=C(O)CC(c1ccccc1F)N1Cc2ccccc2C1=O (stereo not given) returns the recorded outcome of this test.
Found: no (0)

Lookup: GET /call?item= Cc1ccc(OCCNC(=O)CN2C(=O)NC3(CCCC3)C2=O)cc1 returns the recorded outcome of this test.
Found: no (0)

Lookup: GET /call?item= CC(=O)Nc1ccc(NC(=O)[C@@H](NC(=O)c2cccc(C)c2)C(C)C)cc1 returns the recorded outcome of this test.
Found: no (0)

Lookup: GET /call?item= CSCCC(NC(=O)c1ccc(Cl)cc1Cl)C(=O)NNC(=O)c1csc(N2CCOCC2)n1 (stereo not given) returns the recorded outcome of this test.
Found: no (0)

Lookup: GET /call?item= Cc1ccc(-c2nnc(Nc3ccc(C(=O)N(C)C)cc3)c3ccccc23)cc1S(N)(=O)=O returns the recorded outcome of this test.
Found: no (0)

Lookup: GET /call?item= O=c1[nH]c(CSc2ccccc2)nc2c1oc1ccccc12 returns the recorded outcome of this test.
Found: yes (1)

Lookup: GET /call?item= COc1ccc(C2CC(c3ccc(Cl)cc3Cl)Nc3nc(N)nn32)cc1OC (stereo not given) returns the recorded outcome of this test.
Found: no (0)

Lookup: GET /call?item= CC(NCCc1ccc(S(N)(=O)=O)cc1)C(=O)NCc1ccccc1 (stereo not given) returns the recorded outcome of this test.
Found: no (0)

Lookup: GET /call?item= Cc1nc2ccccc2cc1C(=O)N/N=C/c1ccc([N+](=O)[O-])cc1 returns the recorded outcome of this test.
Found: no (0)

Lookup: GET /call?item= N#CC1(NC(=O)COC(=O)CSc2ccc(F)cc2)CCCCC1 returns the recorded outcome of this test.
Found: no (0)

Lookup: GET /call?item= CC1CCN(C(=S)NC(=O)c2ccccc2Br)CC1 returns the recorded outcome of this test.
Found: no (0)

Lookup: GET /call?item= COc1ccc(NC(=O)C2C3CCC(O3)C2C(=O)O)cc1OC (stereo not given) returns the recorded outcome of this test.
Found: no (0)

Lookup: GET /call?item= CC(C)OCCCNC(=O)CN1C(=O)/C(=C/c2ccccc2F)Oc2ccccc21 returns the recorded outcome of this test.
Found: no (0)

Lookup: GET /call?item= O=C(NCCS(=O)(=O)c1ccc(Br)cc1)c1ccccc1Cl returns the recorded outcome of this test.
Found: no (0)

Lookup: GET /call?item= O=C(CCN1C(=O)[C@@H]2Cc3ccccc3CN2C1=O)NCc1ccccc1 returns the recorded outcome of this test.
Found: no (0)

Lookup: GET /call?item= C=CCNC(=S)N1CCc2[nH]c3ccccc3c2C1 returns the recorded outcome of this test.
Found: no (0)

Lookup: GET /call?item= O=C(c1cc2nc(-c3ccccc3)cc(-c3ccccc3)n2n1)N1CCC2(CC1)OCCO2 returns the recorded outcome of this test.
Found: no (0)

Lookup: GET /call?item= Cc1ccc(CSCCNC(=O)CN(c2ccc(F)cc2)S(C)(=O)=O)cc1 returns the recorded outcome of this test.
Found: no (0)

Lookup: GET /call?item= CCOc1ccccc1C1CC(c2ccc(Cl)cc2)Nc2nc(N)nn21 (stereo not given) returns the recorded outcome of this test.
Found: yes (1)

Lookup: GET /call?item= O=C(O)C1CCCN1C1=NS(=O)(=O)c2ccccc21 (stereo not given) returns the recorded outcome of this test.
Found: no (0)

Lookup: GET /call?item= CCn1c(=O)c([N+](=O)[O-])c(NCc2ccc3c(c2)OCO3)c2ccccc21 returns the recorded outcome of this test.
Found: no (0)

Lookup: GET /call?item= Cc1ccc(C(=O)N2CCCC2)c(F)c1F returns the recorded outcome of this test.
Found: no (0)

Lookup: GET /call?item= C/C(=N\Nc1nncc2ccccc12)c1ccc(Cl)c([N+](=O)[O-])c1 returns the recorded outcome of this test.
Found: no (0)

Lookup: GET /call?item= O=C(CNC(=O)c1ccccc1Br)NCCSc1ccc(Br)cc1 returns the recorded outcome of this test.
Found: no (0)

Lookup: GET /call?item= Cc1ccc(-n2ncc3c2CC(C)(C)CC3NC(=O)Cc2c(C)noc2C)cc1 (stereo not given) returns the recorded outcome of this test.
Found: no (0)

Lookup: GET /call?item= Cc1nc2sc(C(=O)c3ccccc3)c(N)c2c2c1CCCC2 returns the recorded outcome of this test.
Found: no (0)

Lookup: GET /call?item= Cc1cccc(NC(=O)c2sc3nc4c(c(-c5ccco5)c3c2N)CCC4)c1 returns the recorded outcome of this test.
Found: yes (1)

Lookup: GET /call?item= COc1ccccc1N=C1SC(C)CN1C(=O)C1CCC1 (stereo not given) returns the recorded outcome of this test.
Found: yes (1)

Lookup: GET /call?item= O=C1/C(=C/c2ccc(F)cc2)SC(=S)N1CCCC(=O)N1CCCCC1CCO (stereo not given) returns the recorded outcome of this test.
Found: yes (1)

Lookup: GET /call?item= Cc1nc(Cl)c2oc3ccccc3c2n1 returns the recorded outcome of this test.
Found: no (0)

Lookup: GET /call?item= COCCN1C(=O)C(=O)/C(=C(/O)c2ccc(S(=O)(=O)N3CCOCC3)cc2)C1c1ccc(O)c(OC)c1 (stereo not given) returns the recorded outcome of this test.
Found: no (0)

Lookup: GET /call?item= Cc1cccc(OCC(=O)Nc2ccc(NC(=O)c3ccco3)c(C)c2)c1 returns the recorded outcome of this test.
Found: no (0)

Lookup: GET /call?item= COc1ccc(/C=C2\N=C3CCCN3C2=O)cc1 returns the recorded outcome of this test.
Found: no (0)

Lookup: GET /call?item= CC(C)C(c1nnnn1C1CCCCC1)N1CCN(C(=O)c2ccco2)CC1 (stereo not given) returns the recorded outcome of this test.
Found: no (0)

Lookup: GET /call?item= CC(=O)N1CCN(C(=O)c2cc(-c3ccc(C)o3)nc3ccccc23)CC1 returns the recorded outcome of this test.
Found: no (0)

Lookup: GET /call?item= O=C(c1cc(-c2ccncc2)nc2ccccc12)N1CCC2(CC1)OCCO2 returns the recorded outcome of this test.
Found: yes (1)

Lookup: GET /call?item= Cc1ccccc1NC(=O)C1CCN(C(=O)NC2CCCCC2)CC1 returns the recorded outcome of this test.
Found: no (0)

Lookup: GET /call?item= Cc1nonc1C(=O)N/N=C/c1ccc(O)cc1 returns the recorded outcome of this test.
Found: yes (1)

Lookup: GET /call?item= O=C(CCCN1C(=O)/C(=C\c2ccccc2)SC1=S)Nc1ccccc1O returns the recorded outcome of this test.
Found: no (0)

Lookup: GET /call?item= Cc1ccnc(NC(=O)CCC(=O)N(CC(=O)NCCc2ccccc2)Cc2cccs2)c1 returns the recorded outcome of this test.
Found: no (0)

Lookup: GET /call?item= CCc1ccc(NC(=O)N[C@H](C(=O)O)C(C)CC)cc1 (stereo not given in full) returns the recorded outcome of this test.
Found: no (0)

###

Test Protocol: Primary qHTS for delayed death inhibitors of the malarial parasite plastid, 96 hour incubation; note: potency is the fitted concentration of half-maximal effect
Run Conditions: P. falciparum luciferase reporter growth; series mostly up to 28.7 µM
About 22,000 (6.9%) of roughly 320,000 compounds were called active. Not shown: some 27% with an inconclusive outcome. This excerpt belongs to a sample that is enriched for actives.
Measured Metric: Potency

Answered examples (5):
Compound Smiles: O=C(NC1CC1)c1ccc2c(c1)NC(=O)c1ccccc1S2
Potency: 8.28 µM (active)

Compound Smiles: COc1cc2nc(Cl)nc(NCCO)c2cc1OC
Potency: inactive

Compound Smiles: O=C(/C=C/c1ccc(Cl)c([N+](=O)[O-])c1)c1ccc(O)cc1
Potency: 9.28 µM (active)

Compound Smiles: Cc1cc(=O)[nH]c(N/N=C/c2ccc3c(c2)OCCO3)n1
Potency: inactive

Compound Smiles: Cc1nc2cccnc2nc1C
Potency: inactive

Lookup: Supply Potency value. Item: Cc1nn(-c2ccccc2)c(Cl)c1/C=N/NC(=O)c1nn(C)cc1[N+](=O)[O-]
Found: inactive

Lookup: Supply Potency value. Item: COc1ccc(CNC(=O)C2CCN(S(C)(=O)=O)CC2)cc1
Found: inactive

Lookup: Supply Potency value. Item: c1ccc(-c2oc3ncnc(N4CCOCC4)c3c2-c2ccccc2)cc1
Found: inactive

Lookup: Supply Potency value. Item: Cc1cc(=O)[nH]c(N/N=C/c2c(C)nn(-c3ccccc3Cl)c2Cl)n1
Found: 2.94 µM (active)

Lookup: Supply Potency value. Item: O=C(Nc1ccncc1)c1ccc(Cl)c([N+](=O)[O-])c1
Found: inactive

Lookup: Supply Potency value. Item: COc1ccc(-c2oc3ncnc(NCCCO)c3c2-c2ccc(OC)cc2)cc1
Found: 2.08 µM (active)
